Heads up, these molecules all have IC50 values measured for EGFR (human) (UniProt P00533).

IN: // lookup IC50 for `COc1ccc2c(c1OC)N=C(NC(=O)c1cccnc1)N1CCN=C21`
OUT: > 50 µM

IN: // lookup IC50 for CC(C)n1nc(-c2cccc(C(=O)NC3C=NCS3)c2)c2c(N)ncnc21 (configuration not stated)
OUT: < 1 µM

====

Subject of test: MAPK14 (human) (UniProt Q16539)
Sequence (Q16539 whole entry, looked up): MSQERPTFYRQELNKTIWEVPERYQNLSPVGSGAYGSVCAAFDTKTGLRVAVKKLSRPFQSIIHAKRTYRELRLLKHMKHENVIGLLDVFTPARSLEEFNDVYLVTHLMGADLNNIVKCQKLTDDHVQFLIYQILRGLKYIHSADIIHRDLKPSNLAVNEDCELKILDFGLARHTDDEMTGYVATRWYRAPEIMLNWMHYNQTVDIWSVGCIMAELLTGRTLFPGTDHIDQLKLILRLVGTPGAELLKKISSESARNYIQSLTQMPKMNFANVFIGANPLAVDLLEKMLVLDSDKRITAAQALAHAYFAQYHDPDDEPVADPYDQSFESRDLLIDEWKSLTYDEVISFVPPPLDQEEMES
Run conditions: concentration not given here
Property: inhibition (%)
Report as a plain number; the unit % is understood.

IN: // lookup inhibition for `COc1ccc2c(c1OC)N=C(NC(=O)c1cccnc1)N1CCN=C21`
OUT: 1.5

IN: // lookup inhibition for `CC(=O)Nc1nc(C)c(-c2ccc(Cl)c(S(=O)(=O)NCCO)c2)s1`
OUT: -2.9

IN: // lookup inhibition for `Cc1ccccc1Oc1cccc2c(=O)cc(N3CCOCC3)[nH]c12`
OUT: -1.2

IN: // lookup inhibition for `Cc1ccccc1-n1c(Cn2cnc3c(N)ncnc32)nc2cccc(C)c2c1=O`
OUT: -4.1

IN: // lookup inhibition for `O=c1cc(-c2cccc3c2Sc2ccccc2S3)oc(N2CCOCC2)c1`
OUT: -1.4

IN: // lookup inhibition for `O=C(c1ccccc1)c1ccc(N2CCOCC2)cc1O`
OUT: -2.8

IN: // lookup inhibition for `Cc1ccc([N+](=O)[O-])cc1S(=O)(=O)N(C)N=Cc1cnc2ccc(Br)cn12`
OUT: -0.3

IN: // lookup inhibition for `Oc1cccc(-c2nc(N3CCOCC3)c3oc4ncccc4c3n2)c1`
OUT: 0.2

IN: // lookup inhibition for `COc1ccccc1-n1c(CSc2ncnc3[nH]cnc23)nc2cccc(Cl)c2c1=O`
OUT: -8.5

IN: // lookup inhibition for Cc1cc(C(C)Nc2ccccc2)c2oc(-c3ccncc3)cc(=O)c2c1 (stereo unspecified)
OUT: -0.9

IN: // lookup inhibition for `O=C1NC(=S)S/C1=C/c1ccc2c(c1)N(Cc1ccc(F)c(Cl)c1)C(=O)CO2`
OUT: -2.6

====

Subject of test: CDK2 (human)
Run conditions: concentration not given here
Property: inhibition (%)
Report as a plain number; the unit % is understood.

IN: // lookup inhibition for `Cc1ccccc1-n1c(Cn2cnc3c(N)ncnc32)nc2cccc(C)c2c1=O`
OUT: -2.4

IN: // lookup inhibition for `Oc1cccc(-c2nc(N3CCOCC3)c3oc4ncccc4c3n2)c1`
OUT: 1.5

IN: // lookup inhibition for `COc1ccccc1-n1c(CSc2ncnc3[nH]cnc23)nc2cccc(Cl)c2c1=O`
OUT: -5.6

IN: // lookup inhibition for `Cc1ccccc1Oc1cccc2c(=O)cc(N3CCOCC3)[nH]c12`
OUT: -5.3

IN: // lookup inhibition for `O=C1NC(=S)S/C1=C/c1ccc2c(c1)N(Cc1ccc(F)c(Cl)c1)C(=O)CO2`
OUT: -4.9

IN: // lookup inhibition for `COc1ccc2c(c1OC)N=C(NC(=O)c1cccnc1)N1CCN=C21`
OUT: -0.9

IN: // lookup inhibition for Cc1cc(C(C)Nc2ccccc2)c2oc(-c3ccncc3)cc(=O)c2c1 (stereo not given)
OUT: -3.1

IN: // lookup inhibition for `CC(=O)Nc1nc(C)c(-c2ccc(Cl)c(S(=O)(=O)NCCO)c2)s1`
OUT: 1.9

IN: // lookup inhibition for `O=c1cc(-c2cccc3c2Sc2ccccc2S3)oc(N2CCOCC2)c1`
OUT: 2.6

IN: // lookup inhibition for `O=C(c1ccccc1)c1ccc(N2CCOCC2)cc1O`
OUT: 0.3

====

Property: pIC50
Keep in mind that pIC50 stands for -log10 of concentration in molar terms.

IN: Query the reported pIC50 for PIK3CG (human); item: `O=c1cc(-c2cccc3c2Sc2ccccc2S3)oc(N2CCOCC2)c1`
OUT: 5.00

IN: Query the reported pIC50 for PIK3CG (human); item: `Cc1ccccc1-n1c(Cn2ncc3c(N)ncnc32)nc2cccc(C)c2c1=O`
OUT: 5.00

IN: Query the reported pIC50 for PIK3CG (human); item: `Cc1ccc([N+](=O)[O-])cc1S(=O)(=O)N(C)N=Cc1cnc2ccc(Br)cn12`
OUT: 7.12

====

Subject of test: PIK3CD (Human)
Property: IC50

IN: Query the reported IC50 for PIK3CD (Human); item: `CC(C)n1nc(-c2ccc3onc(N)c3c2)c2c(N)ncnc21`
OUT: < 1000 nM

IN: Query the reported IC50 for PIK3CD (Human); item: `Cc1ccccc1-n1c(Cn2ncc3c(N)ncnc32)nc2cccc(C)c2c1=O`
OUT: 240 nM

====

Heads up, these molecules all have IC50 values measured for PIK3CA (human).
Report as a plain number; the unit µM is understood.

IN: // lookup IC50 for `O=c1cc(-c2cccc3c2Sc2ccccc2S3)oc(N2CCOCC2)c1`
OUT: 3.3

IN: // lookup IC50 for `Cc1ccccc1-n1c(Cn2ncc3c(N)ncnc32)nc2cccc(C)c2c1=O`
OUT: 100

====

For each entry below, report its pIC50 value.
Subject of test: PIK3CB (Human)
Keep in mind that pIC50 stands for -log10 of concentration in molar terms.

IN: // lookup pIC50 for `O=C1NC(=S)S/C1=C/c1ccc2c(c1)N(Cc1ccc(F)c(Cl)c1)C(=O)CO2`
OUT: 5.96

IN: // lookup pIC50 for `CC(=O)Nc1nc(C)c(-c2ccc(Cl)c(S(=O)(=O)NCCO)c2)s1`
OUT: 6.23

IN: // lookup pIC50 for Cc1cc(C(C)Nc2ccccc2)c2oc(-c3ccncc3)cc(=O)c2c1 (centres undefined)
OUT: 6.92

IN: // lookup pIC50 for `Cc1ccccc1-n1c(Cn2ncc3c(N)ncnc32)nc2cccc(C)c2c1=O`
OUT: 4.60

====

For each entry below, report its pIC50 value.
Subject of test: PIK3CG (human) (UniProt P48736)
Sequence (P48736 whole entry, looked up): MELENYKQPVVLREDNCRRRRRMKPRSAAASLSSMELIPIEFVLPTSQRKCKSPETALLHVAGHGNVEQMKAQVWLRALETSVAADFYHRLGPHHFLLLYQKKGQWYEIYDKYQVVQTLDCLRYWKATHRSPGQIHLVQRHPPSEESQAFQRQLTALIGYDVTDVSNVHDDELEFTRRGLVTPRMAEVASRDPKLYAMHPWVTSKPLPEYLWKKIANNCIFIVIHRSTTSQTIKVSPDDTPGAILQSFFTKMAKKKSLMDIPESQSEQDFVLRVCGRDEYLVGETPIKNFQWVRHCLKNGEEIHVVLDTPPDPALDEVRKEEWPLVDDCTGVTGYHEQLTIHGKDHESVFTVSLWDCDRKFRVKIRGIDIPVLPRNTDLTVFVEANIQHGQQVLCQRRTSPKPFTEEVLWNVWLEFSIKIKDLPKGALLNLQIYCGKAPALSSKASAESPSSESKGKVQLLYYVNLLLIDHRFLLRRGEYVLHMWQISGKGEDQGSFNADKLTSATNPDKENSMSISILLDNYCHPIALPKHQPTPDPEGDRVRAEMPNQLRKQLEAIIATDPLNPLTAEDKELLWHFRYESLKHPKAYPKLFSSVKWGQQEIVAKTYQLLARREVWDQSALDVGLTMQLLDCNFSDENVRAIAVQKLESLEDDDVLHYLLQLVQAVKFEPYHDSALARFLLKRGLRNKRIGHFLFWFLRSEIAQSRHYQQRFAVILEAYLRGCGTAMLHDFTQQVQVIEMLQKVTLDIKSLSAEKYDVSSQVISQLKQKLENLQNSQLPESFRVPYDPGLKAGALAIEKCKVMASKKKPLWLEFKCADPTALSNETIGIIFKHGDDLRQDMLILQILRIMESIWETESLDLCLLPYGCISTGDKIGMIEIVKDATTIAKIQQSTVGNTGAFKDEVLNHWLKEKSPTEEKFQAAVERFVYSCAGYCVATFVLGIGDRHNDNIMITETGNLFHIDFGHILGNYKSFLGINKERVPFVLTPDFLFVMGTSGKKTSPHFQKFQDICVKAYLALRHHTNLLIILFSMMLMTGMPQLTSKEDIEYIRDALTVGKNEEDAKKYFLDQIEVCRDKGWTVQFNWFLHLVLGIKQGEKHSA
pIC50: −log10 of the molar value.

IN: // lookup pIC50 for CC(C)n1nc(-c2cccc(C(=O)NC3C=NCS3)c2)c2c(N)ncnc21 (stereo not drawn)
OUT: > 6.00

IN: // lookup pIC50 for `CC(C)n1cc(-c2cc3cc(C=O)ccc3s2)c2c(N)ncnc21`
OUT: 4.30 to 6.00

IN: // lookup pIC50 for `CC(C)n1nc(-c2ccc(I)cc2)c2c(N)ncnc21`
OUT: 4.30 to 6.00

====

pIC50: −log10 of the molar value.
For each entry below, report its pIC50 value.

IN: Query the reported pIC50 for PIK3CA (human) (UniProt P42336); item: CC(C)n1nc(-c2cccc(C(=O)NC3C=NCS3)c2)c2c(N)ncnc21 (stereo not drawn)
OUT: 4.30 to 6.00

IN: Query the reported pIC50 for PIK3CA (human) (UniProt P42336); item: `CC(C)n1cc(-c2cc3cc(C=O)ccc3s2)c2c(N)ncnc21`
OUT: 4.30 to 6.00

IN: Query the reported pIC50 for PIK3CA (human) (UniProt P42336); item: `CC(C)n1nc(-c2ccc3onc(N)c3c2)c2c(N)ncnc21`
OUT: > 6.00
